This collection of values is drawn from paper PMC5967201.

Target: EoblOBP6 (Ectropis obliqua)
Sequence (A0A1L2BL92 entry or part of it): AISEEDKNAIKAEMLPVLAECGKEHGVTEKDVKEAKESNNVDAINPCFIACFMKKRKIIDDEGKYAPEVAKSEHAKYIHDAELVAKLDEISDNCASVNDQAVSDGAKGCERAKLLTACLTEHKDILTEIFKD
Test: Fluorescence competitive binding assay (displacement of 1-NPN from recombinant EoblOBP6)
Details: Table 1 volatiles; calculated from IC50: Ki = (IC50)/(1+(1-NPN)/K1-NPN)
ENDPOINT: Ki

Study these solved cases before continuing.
- CC1=CC(=O)[C@@H]2C[C@H]1C2(C)C: u.d.
- CC/C=C\CC=O [(Z)-3-hexenal]: u.d.
- C=C(C)[C@H]1CC=C(C)CC1: u.d.
- OCc1ccccc1: u.d.
- C=C/C(C)=C/CC=C(C)C: u.d.

## Input Please give measured Ki of the following entry: CCCCCCO
## Output u.d.

## Input State, in one line, measured Ki of C=C1CCC2CC1C2(C)C (stereo not drawn) [(-)-β-Pinene]
## Output u.d.
